# Target entity: α5β1 (Homo sapiens)
# Sequence (chain, as listed by the source, chain 1 of 2): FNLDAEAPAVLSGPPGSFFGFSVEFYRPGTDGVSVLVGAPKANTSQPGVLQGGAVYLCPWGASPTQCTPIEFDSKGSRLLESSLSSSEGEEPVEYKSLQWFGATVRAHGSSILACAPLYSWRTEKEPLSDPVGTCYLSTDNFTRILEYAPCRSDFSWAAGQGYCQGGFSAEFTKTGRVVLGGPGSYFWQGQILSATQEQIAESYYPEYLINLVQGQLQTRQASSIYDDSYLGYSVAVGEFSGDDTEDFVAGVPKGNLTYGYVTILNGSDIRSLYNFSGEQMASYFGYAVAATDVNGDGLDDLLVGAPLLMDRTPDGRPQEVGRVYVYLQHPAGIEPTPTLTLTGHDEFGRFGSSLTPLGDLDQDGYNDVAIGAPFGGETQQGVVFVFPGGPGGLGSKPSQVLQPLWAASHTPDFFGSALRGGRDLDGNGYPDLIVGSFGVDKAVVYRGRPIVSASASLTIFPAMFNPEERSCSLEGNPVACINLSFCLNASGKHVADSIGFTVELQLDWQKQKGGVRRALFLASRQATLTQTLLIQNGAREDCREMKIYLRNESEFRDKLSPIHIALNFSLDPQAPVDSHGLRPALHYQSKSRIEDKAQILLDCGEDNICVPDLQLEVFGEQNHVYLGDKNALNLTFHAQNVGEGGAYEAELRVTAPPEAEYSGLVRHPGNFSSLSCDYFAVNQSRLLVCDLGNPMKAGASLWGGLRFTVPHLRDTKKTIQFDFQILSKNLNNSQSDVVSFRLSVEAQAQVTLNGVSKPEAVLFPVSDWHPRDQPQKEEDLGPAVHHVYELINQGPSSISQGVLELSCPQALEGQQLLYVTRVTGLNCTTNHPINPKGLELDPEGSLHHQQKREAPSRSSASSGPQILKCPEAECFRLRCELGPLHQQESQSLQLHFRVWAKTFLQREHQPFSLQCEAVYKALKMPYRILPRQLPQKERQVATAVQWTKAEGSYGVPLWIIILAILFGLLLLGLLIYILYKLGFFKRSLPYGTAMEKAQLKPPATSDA
# Sequence (chain, as listed by the source, chain 2 of 2): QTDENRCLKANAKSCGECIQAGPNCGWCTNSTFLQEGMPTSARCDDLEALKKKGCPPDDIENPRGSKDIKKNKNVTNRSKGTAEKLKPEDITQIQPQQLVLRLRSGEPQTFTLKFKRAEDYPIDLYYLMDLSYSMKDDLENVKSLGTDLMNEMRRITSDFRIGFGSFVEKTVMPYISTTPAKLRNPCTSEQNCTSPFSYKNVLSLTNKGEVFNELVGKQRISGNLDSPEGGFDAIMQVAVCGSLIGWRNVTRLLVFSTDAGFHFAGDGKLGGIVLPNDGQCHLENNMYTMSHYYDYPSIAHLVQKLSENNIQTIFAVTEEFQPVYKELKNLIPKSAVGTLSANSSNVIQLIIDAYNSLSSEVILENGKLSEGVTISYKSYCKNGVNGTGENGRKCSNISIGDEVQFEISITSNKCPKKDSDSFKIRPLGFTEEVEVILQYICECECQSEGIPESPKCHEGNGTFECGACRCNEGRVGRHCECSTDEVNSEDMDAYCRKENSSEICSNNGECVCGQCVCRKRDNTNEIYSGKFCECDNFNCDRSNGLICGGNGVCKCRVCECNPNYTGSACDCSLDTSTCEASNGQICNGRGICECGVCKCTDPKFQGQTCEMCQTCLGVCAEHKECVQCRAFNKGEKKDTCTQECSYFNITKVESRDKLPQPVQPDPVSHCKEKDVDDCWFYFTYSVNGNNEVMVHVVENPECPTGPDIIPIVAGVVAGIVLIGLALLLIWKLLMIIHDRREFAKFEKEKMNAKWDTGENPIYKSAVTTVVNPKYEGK
# Method notes: BLI
Endpoint: Kd

What value of Kd has been recorded for this entry: B8_BP-LATY (designed binder, full-length mature chains taken as on K562 cells; soluble ectodomain possible for BLI; divalent cations, glycosylated) TKCVVRFNFRGDLATYALKAVKDHLKKEGPHWNITTHNDDEVYLVVRGIHESDAKRIAKWVESTIPGISVETQCD
> 1000 nM

Request: B6_BP_dslf (designed binder, full-length mature chains taken as on K562 cells; soluble ectodomain possible for BLI; divalent cations, glycosylated) TKCVVRFVFRGDLAELMLRAVKDHLKKEGPHWNITSTNNGKELVVRGIHESDAKRIAKWVEKRFPRVHTETQCD
> 200 nM
